Property: RP-LC retention time; scope: individual molecules
Assay: gradient 5% acetonitrile 3 min, to 50% in 2 min, to 85% in 15 min, held 3 min, 100 µL/min
Settings: column: Zorbax Extend-C18 2.1 x 50 mm; eluents: water / acetonitrile, 0.1% formic acid
# number only, unit s dropped from output

Study these solved cases before continuing.
CCOc1ccc(NC(=O)Cc2nnc(-c3ccc4ncccc4c3)o2)cc1: 718
O=C(C1CCCN(c2nnc3ccccn23)C1)N1CCN(c2ccccn2)CC1 (centres undefined): 514
CCOC(=O)c1c(S(=O)(=O)N2CCC(C(=O)Nc3ccc(OC)cc3)CC2)c(C)n(C)c1C: 804
O=C(CNC(=O)c1ccc(F)c(F)c1)Nc1nc2ccccc2[nH]1: 632
CC(=O)N1CC[C@]2(CO)CN(C(=O)c3ccsc3)C[C@@H]2C1: 565

For record `O=C(NCc1csc(C2CCN(C(=O)c3ccc(F)cc3F)CC2)n1)C1CC1` the listed RP-LC retention time is 697

For record CCNC(=O)N1CC(C)Oc2ccccc21 (centres undefined) the listed RP-LC retention time is 762

For record `CCNC(=O)CCc1nc2ccccc2n(CC(=O)Nc2ccc(OC)c(OC)c2)c1=O` the listed RP-LC retention time is 658

---

Experiment: gradient 5% acetonitrile 3 min, to 50% in 2 min, to 85% in 15 min, held 3 min, 100 µL/min
Conditions: column: Zorbax Extend-C18 2.1 x 50 mm; eluents: water / acetonitrile, 0.1% formic acid
Under this convention, 1.0 denotes RP-LC retention time strictly below 800 s and 0.0 denotes RP-LC retention time at or above 800 s.

Worked examples, 4 compounds total:
CCc1nc(OCC(=O)Nc2ccc(Cl)cc2F)c2ccccc2n1: 0.0
O=C(NCCCc1ccccc1)C1CCCN(c2nc3ccsc3c(=O)n2-c2ccc(F)cc2)C1 (stereo not given): 0.0
Cc1[nH]c(C(=O)N2CCCC(C(=O)NCCN3CCCCC3)C2)c(C)c1C(=O)OC(C)C (stereo not given): 1.0
CCc1ccc(Nc2nc(C(=O)NCCCOC)nc3ccccc23)cc1: 1.0

Input: Dear reviewer, please state whether `O=S(=O)(c1ccc(Br)cc1)N1CCc2nc[nH]c2C1` has RP-LC retention time strictly beneath 800 s.
Output: 1.0

Input: Dear reviewer, please state whether Cc1nc(C)c(C(=O)NCC23CCCC=C2N(C)C(=O)CC3)s1 (stereo not given) has RP-LC retention time strictly beneath 800 s.
Output: 1.0

Input: Dear reviewer, please state whether `Cc1ccc(Sc2nccnc2N2CCC(C(=O)NCc3ccc(F)cc3F)CC2)cc1` has RP-LC retention time strictly beneath 800 s.
Output: 0.0

---

Assay: gradient 5% acetonitrile 3 min, to 50% in 2 min, to 85% in 15 min, held 3 min, 100 µL/min
Conditions: column: Zorbax Extend-C18 2.1 x 50 mm; eluents: water / acetonitrile, 0.1% formic acid
Property: RP-LC retention time; scope: individual compounds

Study these solved cases before continuing.
Cc1ccccc1-c1noc(C2CCCN2C(=O)Nc2cc(F)ccc2F)n1 (centres undefined): 1080 s
Cc1ccc(-c2cn3c(CC(=O)NCc4cccs4)csc3n2)cc1C: 799 s
Cc1ccccc1NC(=O)CN1C(=O)C2CCCCN2c2ccc(S(=O)(=O)N(C)C)cc21 (centres undefined): 607 s
C=CCN1CCN(c2nc3cc(C(=O)OC)ccc3c(=O)n2-c2ccc(F)c(Cl)c2)CC1: 699 s
OC[C@@H]1CN(Cc2cccc(OC(F)(F)F)c2)C[C@H]1c1ccncc1: 570 s
COc1ccc(OC)c(CNS(=O)(=O)c2cccc(-c3nc(-c4ccc(C)cc4)no3)c2)c1: 1220 s

For record `O=C(Nc1ccc2nncn2c1)c1ccc(Cl)cc1` the listed RP-LC retention time is 719 s
